Where these numbers come from: ChEMBL document CHEMBL3227917

Experiment: Antitumor activity against mouse Ridgway osteogenic sarcoma allografted in AKR mouse assessed as tumor growth inhibition at 0.20 mg/kg, ip administered daily for 8 to 10 days compound treatment commenced 8 days after tumor implantation
Assay type: functional
Conditions: route intraperitoneal, read-out: TGI
property measured: inhibition in vivo at 0.2 mg/kg
Answer shape: numeric part, then the unit.

CC[C@]1(O)C[C@H]2CN(CCc3c([nH]c4ccccc34)[C@@](C(=O)OC)(c3cc4c(cc3OC)N(C)[C@H]3[C@@](O)(C(=O)NCCO)[C@H](O)[C@]5(CC)C=CCN6CC[C@]43[C@@H]65)C2)C1.O=S(=O)(O)O	76%

Recorded inhibition in vivo at 0.2 mg/kg for "CC[C@]1(O)C[C@H]2CN(CCc3c([nH]c4ccccc34)[C@@](C(=O)OC)(c3cc4c(cc3OC)N(C)[C@H]3[C@@](O)(C(=O)NCCN(C)C)[C@H](O)[C@]5(CC)C=CCN6CC[C@]43[C@@H]65)C2)C1" , please? 0%

Recorded inhibition in vivo at 0.2 mg/kg for "CC[C@]1(O)C[C@H]2CN(CCc3c([nH]c4ccccc34)[C@@](C(=O)OC)(c3cc4c(cc3OC)N(C)[C@H]3[C@@](O)(C(=O)NC5CCCCC5)[C@H](O)[C@]5(CC)C=CCN6CC[C@]43[C@@H]65)C2)C1" , please? 26%

Recorded inhibition in vivo at 0.2 mg/kg for CC[C@]1(O)C[C@@H]2CN(CCc3c([nH]c4ccccc34)[C@@](C(=O)OC)(c3cc4c(cc3OC)N(C)[C@H]3[C@@](O)(C(N)=O)[C@H](O)[C@]5(CC)C=CCN6CC[C@]43[C@@H]65)C2)C1.O=S(=O)(O)O [VINDESINE SULFATE] , please? 51%

* * *

Experiment: Antitumor activity against mouse Gardner lymphosarcoma allografted in C3H mouse assessed as tumor growth inhibition at 0.40 mg/kg, ip administered daily for 8 to 10 days
Format: functional
Settings: route intraperitoneal, read-out: TGI
Recorded inhibition in vivo at 0.4 mg/kg by entry
Write down the numeric answer in % and omit the unit.

CCCCCCNC(=O)[C@@]1(O)[C@H](O)[C@]2(CC)C=CCN3CC[C@@]4(c5cc([C@@]6(C(=O)OC)C[C@@H]7CN(CCc8c6[nH]c6ccccc86)C[C@](O)(CC)C7)c(OC)cc5N(C)[C@@H]14)[C@@H]32	0

Please turn your attention to the following entry.
Recorded inhibition in vivo at 0.4 mg/kg for "CC[C@]1(O)C[C@H]2CN(CCc3c([nH]c4ccccc34)[C@@](C(=O)OC)(c3cc4c(cc3OC)N(C)[C@H]3[C@@](O)(C(=O)NCCNC(C)=O)[C@H](O)[C@]5(CC)C=CCN6CC[C@]43[C@@H]65)C2)C1" , please? 76

* * *

System: B16
Assay: Antitumor activity against mouse B16 cells allografted in C57BL/6 mouse assessed as prolongation of host survival at 0.90 mg/kg, ip administered on days 1,5 and 9
Type: functional
Settings: route intraperitoneal
Recorded survival at 0.9 mg/kg by entry
Write down the numeric answer in % and omit the unit.

CC[C@]1(O)C[C@H]2CN(CCc3c([nH]c4ccccc34)[C@@](C(=O)OC)(c3cc4c(cc3OC)N(C)[C@H]3[C@@](O)(C(=O)NCCSSCCNC(=O)[C@@]5(O)[C@H](O)[C@]6(CC)C=CCN7CC[C@@]8(c9cc([C@@]%10(C(=O)OC)C[C@@H]%11CN(CCc%12c%10[nH]c%10ccccc%12%10)C[C@](O)(CC)C%11)c(OC)cc9N(C)[C@@H]58)[C@@H]76)[C@H](O)[C@]5(CC)C=CCN6CC[C@]43[C@@H]65)C2)C1.O=S(=O)(O)O	170
CC[C@]1(O)C[C@H]2CN(CCc3c([nH]c4ccccc34)[C@@](C(=O)OC)(c3cc4c(cc3OC)N(C)[C@H]3[C@@](O)(C(=O)NCCS)[C@H](O)[C@]5(CC)C=CCN6CC[C@]43[C@@H]65)C2)C1.O=S(=O)(O)O	141

Please turn your attention to the following entry.
Recorded survival at 0.9 mg/kg for "CC[C@]1(O)C[C@H]2CN(CCc3c([nH]c4ccccc34)[C@@](C(=O)OC)(c3cc4c(cc3OC)N(C)[C@H]3[C@@](O)(C(=O)NCCSSCCNC(C)=O)[C@H](O)[C@]5(CC)C=CCN6CC[C@]43[C@@H]65)C2)C1" , please? 118

* * *

Recorded LD50 by entry
Assay: Toxicity in iv dosed mouse assessed as lethality
Type: organism-based
Details: in vivo
Write down the numeric answer in mg/kg and omit the unit.

Solved entries:
CC[C@]1(O)C[C@@H]2CN(CCc3c([nH]c4ccccc34)[C@@](C(=O)OC)(c3cc4c(cc3OC)N(C)[C@H]3[C@@](O)(C(N)=O)[C@H](O)[C@]5(CC)C=CCN6CC[C@]43[C@@H]65)C2)C1.O=S(=O)(O)O [VINDESINE SULFATE]	6.3
CC[C@]1(O)C[C@@H]2CN(CCc3c([nH]c4ccccc34)[C@@](C(=O)OC)(c3cc4c(cc3OC)N(C)[C@H]3[C@@](O)(C(=O)OC)[C@H](OC(C)=O)[C@]5(CC)C=CCN6CC[C@]43[C@@H]65)C2)C1.O=S(=O)(O)O [VINBLASTINE SULFATE]	10
CC[C@]1(O)C[C@H]2CN(CCc3c([nH]c4ccccc34)[C@@](C(=O)OC)(c3cc4c(cc3OC)N(C)[C@H]3[C@@](O)(C(=O)NCCSSCCNC(=O)[C@@]5(O)[C@H](O)[C@]6(CC)C=CCN7CC[C@@]8(c9cc([C@@]%10(C(=O)OC)C[C@@H]%11CN(CCc%12c%10[nH]c%10ccccc%12%10)C[C@](O)(CC)C%11)c(OC)cc9N(C)[C@@H]58)[C@@H]76)[C@H](O)[C@]5(CC)C=CCN6CC[C@]43[C@@H]65)C2)C1.O=S(=O)(O)O	6.9
CC[C@]1(O)C[C@H]2CN(CCc3c([nH]c4ccccc34)[C@@](C(=O)OC)(c3cc4c(cc3OC)N(C)[C@H]3[C@@](O)(C(=O)NCCO)[C@H](O)[C@]5(CC)C=CCN6CC[C@]43[C@@H]65)C2)C1.O=S(=O)(O)O	4.4

Recorded LD50 for CC[C@]1(O)C[C@H]2CN(CCc3c([nH]c4ccccc34)[C@@](C(=O)OC)(c3cc4c(cc3OC)N(C=O)[C@H]3[C@@](O)(C(=O)OC)[C@H](OC(C)=O)[C@]5(CC)C=CCN6CC[C@]43[C@@H]65)C2)C1.O=S(=O)(O)O [VINCRISTINE SULFATE] , please? 2.1

* * *

Assay: Antitumor activity against mouse Gardner lymphosarcoma allografted in C3H mouse assessed as tumor growth inhibition at 0.40 mg/kg, ip administered daily for 8 to 10 days
Type: functional
Conditions: route intraperitoneal, read-out: TGI
Recorded inhibition in vivo at 0.4 mg/kg by entry
Write down the numeric answer in % and omit the unit.

CC[C@]1(O)C[C@H]2CN(CCc3c([nH]c4ccccc34)[C@@](C(=O)OC)(c3cc4c(cc3OC)N(C)[C@H]3[C@@](O)(C(=O)NCCCO)[C@H](O)[C@]5(CC)C=CCN6CC[C@]43[C@@H]65)C2)C1	76
CC[C@]1(O)C[C@H]2CN(CCc3c([nH]c4ccccc34)[C@@](C(=O)OC)(c3cc4c(cc3OC)N(C)[C@H]3[C@@](O)(C(=O)NCCO)[C@H](O)[C@]5(CC)C=CCN6CC[C@]43[C@@H]65)C2)C1.O=S(=O)(O)O	76
CC[C@]1(O)C[C@H]2CN(CCc3c([nH]c4ccccc34)[C@@](C(=O)OC)(c3cc4c(cc3OC)N(C)[C@H]3[C@@](O)(C(=O)NCCS)[C@H](O)[C@]5(CC)C=CCN6CC[C@]43[C@@H]65)C2)C1.O=S(=O)(O)O	76

Please turn your attention to the following entry.
Recorded inhibition in vivo at 0.4 mg/kg for CC[C@]1(O)C[C@H]2CN(CCc3c([nH]c4ccccc34)[C@@](C(=O)OC)(c3cc4c(cc3OC)N(C)[C@H]3[C@@](O)(C(=O)NCC(O)CO)[C@H](O)[C@]5(CC)C=CCN6CC[C@]43[C@@H]65)C2)C1 (some centres undefined) , please? 51

* * *

Recorded pKa by entry
Assay: Dissociation constant, pKa of the compound
Format: physicochemical
No unit in the answer, please; the number alone is enough.

CC[C@]1(O)C[C@H]2CN(CCc3c([nH]c4ccccc34)[C@@](C(=O)OC)(c3cc4c(cc3OC)N(C)[C@H]3[C@@](O)(C(=O)NCCN(C)C)[C@H](O)[C@]5(CC)C=CCN6CC[C@]43[C@@H]65)C2)C1	8.5

Recorded pKa for "CC[C@]1(O)C[C@H]2CN(CCc3c([nH]c4ccccc34)[C@@](C(=O)OC)(c3cc4c(cc3OC)N(C)[C@H]3[C@@](O)(C(=O)NCCN)[C@H](O)[C@]5(CC)C=CCN6CC[C@]43[C@@H]65)C2)C1" , please? 9.48
